Each recorded value in this set is attributed to paper PMC8704707.

Can you tell me IC50 for the items I'm about to list?
Biological target: BuChE from equine serum (EqBuChE) (Equus caballus)
Sequence (P81908 whole entry): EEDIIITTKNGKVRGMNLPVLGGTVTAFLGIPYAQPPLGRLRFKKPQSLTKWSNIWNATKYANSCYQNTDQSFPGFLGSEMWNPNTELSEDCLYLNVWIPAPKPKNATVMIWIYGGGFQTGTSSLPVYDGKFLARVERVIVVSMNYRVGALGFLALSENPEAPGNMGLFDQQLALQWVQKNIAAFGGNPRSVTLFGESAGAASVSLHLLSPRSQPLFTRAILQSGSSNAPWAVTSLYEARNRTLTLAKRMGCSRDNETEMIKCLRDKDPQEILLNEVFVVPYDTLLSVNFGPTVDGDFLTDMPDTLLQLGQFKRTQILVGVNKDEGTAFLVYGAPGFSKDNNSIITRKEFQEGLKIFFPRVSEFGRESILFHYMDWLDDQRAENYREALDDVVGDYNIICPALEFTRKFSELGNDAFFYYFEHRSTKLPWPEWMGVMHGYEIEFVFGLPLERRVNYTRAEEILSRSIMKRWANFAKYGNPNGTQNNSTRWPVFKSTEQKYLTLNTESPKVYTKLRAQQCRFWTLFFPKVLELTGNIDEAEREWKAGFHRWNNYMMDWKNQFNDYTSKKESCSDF
Experiment: biochemical
Details: read-out: IC50 BuChE
One number for each entry, in µM.

Examples from the recorded data:
compound | IC50 / µM
N=C(N)NN [aminoguanidine, hydrazinecarboximidamide, reference compound] | 327
NNC(N)=S [thiosemicarbazide, reference compound] | 328
N=C(N/N=C/c1cc(I)cc(I)c1O)N/N=C/c1cc(I)cc(I)c1O [Compound 2g] | 8.26
Cl.N=C(NN)N/N=C/c1cc(I)cc(I)c1O [Compound 2e] | 1.69

Below: the item to evaluate.
Value of IC50 reported for the compound NNC(N)=O [semicarbazide, reference compound] is 365
